Target: human P2X3 receptor (Homo sapiens)
Test: Intracellular calcium measurement to assess antagonist activity at human P2X3 receptors (hP2X3 CHO), photina luminescence
Format: cell-based
Parameters: expressed in transfected cells; host or cells: Chinese hamster ovary (CHO) cells
Conditions: column 2), CHO cells, agonist α,β-methylene-ATP at EC50

| compound | experimental.target | unit.info | IC50 |
| --- | --- | --- | --- |
| CC(C)N1Cc2c(n(CC(=O)Nc3ccc(F)cn3)c3cc(CN4CCCC4=O)nn3c2=O)C1=O [Example 232] | human P2X3 receptor (Homo sapiens) | nM | 53 |
| CC(C)[C@H](C)N1Cc2c(n(CC(=O)Nc3ccc(Cl)cn3)c3cc(C(C)(C)C)nn3c2=O)C1=O [Example 12] | human P2X3 receptor (Homo sapiens) | nM | 110 |
| CCc1cc2n(CC(=O)Nc3ccc(F)cn3)c3c(c(=O)n2n1)CN(CC1CCCN1)C3=O.Cl (stereo not shown) [Example 239] | human P2X3 receptor (Homo sapiens) | nM | 220 |
| CC(C)c1cc2n(CC(=O)Nc3ccc(Cl)cn3)c3c(c(=O)n2n1)CN(C(C)C)C3=O [Example 8] | human P2X3 receptor (Homo sapiens) | nM | 51 |
| CCc1cc2n(CC(=O)Nc3ccc(F)cn3)c3c(c(=O)n2n1)CN(C[C@H]1CN(C(C)=O)CCO1)C3=O [Example 267] | human P2X3 receptor (Homo sapiens) | nM | 557 |
| CC(C)N1Cc2c(n(CC(=O)Nc3ccc(F)cn3)c3cc(C4CCCCC4)nn3c2=O)C1=O [Example 85] | human P2X3 receptor (Homo sapiens) | nM | 4 |
| Cc1ccccc1NC(=O)c1cc2n(CC(=O)Nc3ccc(F)cn3)c3c(c(=O)n2n1)CN(C(C)C)C3=O [Example 204] | human P2X3 receptor (Homo sapiens) | nM | 36 |
| Cc1ccc(-c2cc3n(CC(=O)Nc4ccc(F)cn4)c4c(c(=O)n3n2)CN([C@H]2CCOC2)C4=O)nc1 [Example 161] | human P2X3 receptor (Homo sapiens) | nM | 24 |
| COC[C@H](C)N1Cc2c(n(CC(=O)Nc3ccc(F)cn3)c3cc(C(=O)N4CCOCC4)nn3c2=O)C1=O [Example 191] | human P2X3 receptor (Homo sapiens) | nM | 29 |
| CC(C)N1Cc2c(n(CC(=O)Nc3ccc(F)cn3)c3cc(NCC(F)F)nn3c2=O)C1=O [Example 170] | human P2X3 receptor (Homo sapiens) | nM | 59 |
| COC[C@H](C)N1Cc2c(n(CC(=O)Nc3ccc(F)cn3)c3cc(NC4CCCC4)nn3c2=O)C1=O [Example 178] | human P2X3 receptor (Homo sapiens) | nM | 14 |
| CC(C)N1Cc2c(n(CC(=O)Nc3ccc(F)cn3)c3cc(C4CC4)nn3c2=O)C1=O [Example 56] | human P2X3 receptor (Homo sapiens) | nM | 73 |
| CCc1cc2n(CC(=O)Nc3ccc(C)cn3)c3c(c(=O)n2n1)CN(C(C)C)C3=O [Example 65] | human P2X3 receptor (Homo sapiens) | nM | 200 |
| CC(C)N1Cc2c(n(CC(=O)Nc3ccc(F)cn3)c3cc(C4CCN(C5CCC5)CC4)nn3c2=O)C1=O [Example 252] | human P2X3 receptor (Homo sapiens) | nM | 460 |
| CC(C)N1Cc2c(n(CC(=O)Nc3ccc(F)cn3)c3cc(C(=O)O)nn3c2=O)C1=O [Example 84] | human P2X3 receptor (Homo sapiens) | nM | 1400 |
| O=C(Cn1c2c(c(=O)n3nc(C(F)(F)F)cc13)CN(CCN1CCOCC1)C2=O)Nc1ccc(F)cn1 [Example 103] | human P2X3 receptor (Homo sapiens) | nM | 143 |
| CCc1cc2n(CC(=O)Nc3ccc(Br)cn3)c3c(c(=O)n2n1)CN(C(C)C)C3=O [Example 67] | human P2X3 receptor (Homo sapiens) | nM | 185 |
| CC(C)N1Cc2c(n(CC(=O)Nc3ccc(Cl)cn3)c3cc(C(F)(F)F)nn3c2=O)C1=O [Example 29] | human P2X3 receptor (Homo sapiens) | nM | 41 |
| CC(C)N1Cc2c(n(CC(=O)Nc3ccc(F)cn3)c3cc(C4CCOC4)nn3c2=O)C1=O (racemic) [Example 228] | human P2X3 receptor (Homo sapiens) | nM | 95 |
| CCc1cc2n(CC(=O)Nc3ccc(F)cn3)c3c(c(=O)n2n1)CN(C(C)C)C3=O [Example 24] | human P2X3 receptor (Homo sapiens) | nM | 60 |
| CC(C)N1Cc2c(n(CC(=O)Nc3ccc(F)cn3)c3cc(-c4ccc(F)cn4)nn3c2=O)C1=O [Example 165] | human P2X3 receptor (Homo sapiens) | nM | 13 |
| COC[C@H](C)N1Cc2c(n(CC(=O)Nc3ccc(F)cn3)c3cc(C#N)nn3c2=O)C1=O [Example 148] | human P2X3 receptor (Homo sapiens) | nM | 225 |
| CC(C)(C)c1cc2n(CC(=O)Nc3ccc(F)cn3)c3c(c(=O)n2n1)CN(CC1CCOCC1)C3=O [Example 28] | human P2X3 receptor (Homo sapiens) | nM | 305 |
| Cc1ccc(-c2cc3n(CC(=O)Nc4ccc(F)cn4)c4c(c(=O)n3n2)CN(C(C)C)C4=O)nc1 [Example 69] | human P2X3 receptor (Homo sapiens) | nM | 8 |
| O=C(Cn1c2c(c(=O)n3nc(-c4ccncc4)cc13)CN(CCN1CCOCC1)C2=O)Nc1ccc(F)cn1 [Example 132] | human P2X3 receptor (Homo sapiens) | nM | 18 |
| CC(C)N1Cc2c(n(CC(=O)Nc3ccc(F)cn3)c3cc(C4=CCS(=O)(=O)CC4)nn3c2=O)C1=O [Example 145] | human P2X3 receptor (Homo sapiens) | nM | 33 |
| Cc1cc2n(CC(=O)Nc3ccc(F)cn3)c3c(c(=O)n2n1)CN([C@H](C)C1CC1)C3=O [Example 55] | human P2X3 receptor (Homo sapiens) | nM | 195 |
| COC[C@H](C)N1Cc2c(n(CC(=O)Nc3ccc(F)cn3)c3cc(C(=O)N(C)C4CC4)nn3c2=O)C1=O [Example 196] | human P2X3 receptor (Homo sapiens) | nM | 10 |

###

// reported IC50 for each item listed
Target: human P2X3 receptor (Homo sapiens, UniProt P56373)
Experiment: Intracellular calcium measurement, antagonist activity at human P2X3 receptors (hP2X3 1321N1), Fluo8
Assay type: cell-based
Set-up: expressed in transfected cells; host or cells: human astrocytoma 1321N1 (1312N1 [sic])
Settings: column 3); 1321N1 cells, human P2X3, Fluo8, agonist ATP at EC50

| molecule | experimental.target | unit.info | IC50 |
| --- | --- | --- | --- |
| CCc1cc2n(CC(=O)Nc3ccc(F)cn3)c3c(c(=O)n2n1)CN(Cc1ccccn1)C3=O | human P2X3 receptor (Homo sapiens, UniProt P56373) | nM | 16 |
| CC(C)N1Cc2c(n(CC(=O)Nc3ccc(F)cn3)c3cc(NC(=O)COCc4ccccc4)nn3c2=O)C1=O | human P2X3 receptor (Homo sapiens, UniProt P56373) | nM | 48 |
| CCc1cc2n(CC(=O)Nc3ccc(F)cn3)c3c(c(=O)n2n1)CN(C1CCOC1)C3=O (racemic) | human P2X3 receptor (Homo sapiens, UniProt P56373) | nM | 125 |

###

Biological target: human P2X2/3 receptors (Homo sapiens, UniProt P56373+Q9UBL9)
Construct: expressed in transfected cells; host or cells: human astrocytoma 1321N1 (1312N1 [sic])
Sequence (P56373 1-397): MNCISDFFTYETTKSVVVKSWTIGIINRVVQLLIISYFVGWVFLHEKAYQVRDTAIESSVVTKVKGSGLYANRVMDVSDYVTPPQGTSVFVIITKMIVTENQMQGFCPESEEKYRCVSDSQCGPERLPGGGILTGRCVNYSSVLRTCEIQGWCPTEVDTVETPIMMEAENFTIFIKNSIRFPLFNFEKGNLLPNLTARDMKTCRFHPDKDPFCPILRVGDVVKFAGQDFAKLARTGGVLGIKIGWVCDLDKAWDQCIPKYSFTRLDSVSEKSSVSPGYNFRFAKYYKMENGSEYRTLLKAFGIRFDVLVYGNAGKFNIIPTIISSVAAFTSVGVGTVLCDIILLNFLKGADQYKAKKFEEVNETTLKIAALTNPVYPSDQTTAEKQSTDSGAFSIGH
Sequence (Q9UBL9 1-471): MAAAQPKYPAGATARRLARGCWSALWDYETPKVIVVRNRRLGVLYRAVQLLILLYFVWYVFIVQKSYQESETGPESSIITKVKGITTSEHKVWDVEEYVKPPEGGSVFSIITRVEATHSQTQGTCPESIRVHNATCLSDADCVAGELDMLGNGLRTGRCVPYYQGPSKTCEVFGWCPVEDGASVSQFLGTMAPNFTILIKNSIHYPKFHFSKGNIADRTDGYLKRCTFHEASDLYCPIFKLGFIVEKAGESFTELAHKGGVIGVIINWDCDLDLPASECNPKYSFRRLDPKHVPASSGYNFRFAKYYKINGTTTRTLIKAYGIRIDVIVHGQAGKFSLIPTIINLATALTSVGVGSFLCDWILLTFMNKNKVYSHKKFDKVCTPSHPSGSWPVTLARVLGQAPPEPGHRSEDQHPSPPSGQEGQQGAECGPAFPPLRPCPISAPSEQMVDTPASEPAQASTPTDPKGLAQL
Test: Intracellular calcium measurement, antagonist activity at human P2X2/3 receptors (hP2X23 1321N1), Fluo8
Assay type: cell-based
Conditions: ratio of column 4) hP2X2/3 to column 3) hP2X3, 1321N1
quantity.measured: hP2X23/hP2X3* Selectivity (1321N1)

| compound | endpoint.value |
| --- | --- |
| COCc1cc2n(CC(=O)Nc3ccc(F)cn3)c3c(c(=O)n2n1)CN(C(C)C)C3=O | >121 |
| CCc1cc2n(CC(=O)Nc3ccc(F)cn3)c3c(c(=O)n2n1)CN(CCN1CCOCC1)C3=O | >82 |
| CC(C)N1Cc2c(n(CC(=O)Nc3ccc(F)cn3)c3cc(C4CCN(S(=O)(=O)CC(F)(F)F)C4)nn3c2=O)C1=O (centres unmarked) | >569 |
| Cc1cc2n(CC(=O)Nc3ccc(F)cn3)c3c(c(=O)n2n1)CN(C(C)C)C3=O | >11134 |
| COC[C@H](C)N1Cc2c(n(CC(=O)Nc3ccc(F)cn3)c3cc(C(=O)N(C)C)nn3c2=O)C1=O | >291 |
| COC[C@H](C)N1Cc2c(n(CC(=O)Nc3ccc(F)cn3)c3cc(C(=O)NC4CC4)nn3c2=O)C1=O | >530 |
| CCc1cc2n(CC(=O)Nc3ccc(F)cn3)c3c(c(=O)n2n1)CN(C1CCN(C(=O)NC(C)C)C1)C3=O (racemic) | >256 |
| CC(C)N1Cc2c(n(CC(=O)Nc3ccccn3)c3cc(C(C)(C)C)nn3c2=O)C1=O | >119 |

Reference for the values: patent US11319324B2
